experiment-summary: Cytotoxicity against Sprague-Dawley rat alveolar macrophages assessed as cell viability at 0.4 mM after 3 hrs by trypan blue exclusion assay
Type: cell-based, Macrophage
reported-conditions: read-out: Activity
observed-property: viability at 3 h, 400 µM

viability at 3 h, 400 µM for NCCCCNCCCCNCc1c2ccccc2cc2ccccc12 ?
< 16%

viability at 3 h, 400 µM for Cl.Cl.NCCCCNCc1c2ccccc2cc2ccccc12 ?
< 16%

viability at 3 h, 400 µM for NCCCCNCCCCNCCCCNCc1c2ccccc2cc2ccccc12 ?
88%

====

experiment-summary: Cytotoxicity against Sprague-Dawley rat alveolar macrophages assessed as cell viability at 2 mM after 3 hrs by trypan blue exclusion assay
Format: cell-based, Macrophage
reported-conditions: Sprague-Dawley, alveolar macrophages, read-out: Activity
observed-property: viability at 3 h, 2000 µM (%)
Report as a plain number; the unit % is understood.

viability at 3 h, 2000 µM for NCCCCNCCCCNCCCCNCc1c2ccccc2cc2ccccc12 ?
42

# credit: ChEMBL document CHEMBL1649301
